Origin of values: the supplement of paper PMC10065799

# target or system: Fyn (UniProt P06241)
# Sequence (P06241 whole entry, looked up): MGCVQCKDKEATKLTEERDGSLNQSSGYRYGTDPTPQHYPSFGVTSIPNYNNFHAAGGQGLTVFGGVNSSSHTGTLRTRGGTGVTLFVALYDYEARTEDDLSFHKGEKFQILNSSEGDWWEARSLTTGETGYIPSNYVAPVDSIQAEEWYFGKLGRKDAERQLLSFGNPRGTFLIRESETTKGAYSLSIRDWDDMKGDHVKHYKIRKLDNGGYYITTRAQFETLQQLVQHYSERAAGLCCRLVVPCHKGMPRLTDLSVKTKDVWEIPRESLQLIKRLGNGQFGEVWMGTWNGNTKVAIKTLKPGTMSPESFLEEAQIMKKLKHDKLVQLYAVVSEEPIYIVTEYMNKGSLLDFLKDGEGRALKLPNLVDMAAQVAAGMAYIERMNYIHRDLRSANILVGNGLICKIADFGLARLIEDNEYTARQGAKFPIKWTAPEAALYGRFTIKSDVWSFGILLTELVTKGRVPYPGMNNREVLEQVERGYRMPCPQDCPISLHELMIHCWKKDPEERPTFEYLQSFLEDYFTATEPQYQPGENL
# test method notes: phosphorylation enrichment, bacterial display (enrichment ratio); higher = better substrate or ligand; peptides without Tyr show the background;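 note: 11-residue human phosphosite peptides and single-mutation variants displayed on the E. coli surface, counted by deep sequencing, each peptide's frequency after selection divided by its frequency in the unselected input library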;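 note: frequency after pTyr selection over input frequency; kinase dosed for 20-30% of maximal phosphorylation in three min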
Think of 0.5 as a floor: if phosphorylation enrichment stands on it or above, it is Yes; beneath it, No.

Previously resolved entries follow.
IDPFTYTPFGS [CYP3A4_Y432_I431T_YF] : Yes
QRVLLYVQRET [GRHL3_Y518_R520Q] : Yes
RETSLYKACER [ASB2_Y162_P160S] : No
LLTALYFISRG [KCNH2_Y780] : Yes
SGRPGYCLGTR [SCO1_Y60] : No
ASFPLYEPAKM [MKI67_Y340] : Yes

# next sequence below
Qu. phosphorylation enrichment >= 0.5 for KVQVSYKGETK [HSPA1A_Y107] ?
Ans. No
